Attribution: patent US9073863B2

Target: ΔF508-CFTR (Homo sapiens, UniProt P13569, DEL508-508)
Construct: expressed in transfected cells; host or cells: Fischer rat thyroid (FRT) epithelial cells, stably transfected
Sequence (P13569 with tags, fused parts or gaps DEL508-508): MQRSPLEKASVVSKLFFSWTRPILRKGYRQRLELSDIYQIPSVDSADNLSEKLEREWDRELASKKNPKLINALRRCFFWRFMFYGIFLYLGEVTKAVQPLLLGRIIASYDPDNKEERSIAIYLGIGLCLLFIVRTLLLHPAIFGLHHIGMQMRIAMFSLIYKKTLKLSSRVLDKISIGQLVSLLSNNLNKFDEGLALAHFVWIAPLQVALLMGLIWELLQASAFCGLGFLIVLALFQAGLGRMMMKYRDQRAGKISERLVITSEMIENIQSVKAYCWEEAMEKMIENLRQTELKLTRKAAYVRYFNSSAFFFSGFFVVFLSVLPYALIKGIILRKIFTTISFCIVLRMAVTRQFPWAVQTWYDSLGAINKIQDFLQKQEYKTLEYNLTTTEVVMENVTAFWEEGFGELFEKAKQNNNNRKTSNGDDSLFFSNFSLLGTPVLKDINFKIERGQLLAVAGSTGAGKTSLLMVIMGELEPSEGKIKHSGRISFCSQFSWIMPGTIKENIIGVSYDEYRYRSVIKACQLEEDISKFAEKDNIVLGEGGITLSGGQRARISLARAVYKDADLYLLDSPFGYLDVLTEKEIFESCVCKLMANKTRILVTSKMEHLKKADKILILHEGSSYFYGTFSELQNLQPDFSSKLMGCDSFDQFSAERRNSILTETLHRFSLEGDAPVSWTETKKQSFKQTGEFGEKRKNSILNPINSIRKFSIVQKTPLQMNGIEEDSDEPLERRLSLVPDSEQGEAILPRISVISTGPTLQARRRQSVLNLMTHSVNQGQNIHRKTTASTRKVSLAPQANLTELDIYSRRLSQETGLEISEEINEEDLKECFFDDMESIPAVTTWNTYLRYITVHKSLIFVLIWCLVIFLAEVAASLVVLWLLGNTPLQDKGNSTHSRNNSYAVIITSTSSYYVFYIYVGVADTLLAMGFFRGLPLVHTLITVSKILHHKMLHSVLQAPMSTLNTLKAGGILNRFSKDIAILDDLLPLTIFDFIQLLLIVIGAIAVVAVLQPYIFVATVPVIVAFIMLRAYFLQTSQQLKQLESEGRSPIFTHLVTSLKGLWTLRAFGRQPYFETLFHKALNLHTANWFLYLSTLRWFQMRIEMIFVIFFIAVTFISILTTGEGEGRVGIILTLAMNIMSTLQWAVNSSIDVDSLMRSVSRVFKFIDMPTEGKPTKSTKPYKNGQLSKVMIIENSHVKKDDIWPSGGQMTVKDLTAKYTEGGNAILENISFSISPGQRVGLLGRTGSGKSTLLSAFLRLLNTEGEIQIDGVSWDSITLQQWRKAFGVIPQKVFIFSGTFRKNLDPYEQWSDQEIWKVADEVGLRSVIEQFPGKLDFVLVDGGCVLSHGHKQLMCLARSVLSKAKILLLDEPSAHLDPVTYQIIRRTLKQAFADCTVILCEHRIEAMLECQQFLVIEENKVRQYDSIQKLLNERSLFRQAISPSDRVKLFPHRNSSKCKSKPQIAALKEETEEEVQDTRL
Assay: Corrector assay, YFP fluorescence plate reader iodide influx in ΔF508-CFTR expressing FRT cells
Assay type: cell-based
Details: Table IX, additional experiments; 18-24 h with compound at 37° C., forskolin 20 μM + genistein 50 μM
recorded.metric: Corrector Vmax (µM/s)

# compound, target.of.assay, observed.measurement
measured = [
    ("Cc1cc(C)c2cc(C#N)c(NCCNC(=O)c3ccncc3)nc2c1 [drawing 169]", "ΔF508-CFTR (Homo sapiens, UniProt P13569, DEL508-508)", 176),
    ("COc1cccc(OC)c1C(=O)NCCNc1nc2cc(C)cc(C)c2cc1C#N", "ΔF508-CFTR (Homo sapiens, UniProt P13569, DEL508-508)", 111),
    ("COc1ccc(C(=O)NCCNc2nc3cc(C)cc(C)c3cc2C#N)cc1 [drawing 166]", "ΔF508-CFTR (Homo sapiens, UniProt P13569, DEL508-508)", 172),
    ("Cc1cc(C)c2cc(C#N)c(NCCCNC(=O)c3cccnc3)nc2c1 [drawing 180]", "ΔF508-CFTR (Homo sapiens, UniProt P13569, DEL508-508)", 140),
]

###

Biological target: ΔF508-CFTR (Homo sapiens, UniProt P13569, DEL508-508)
Construct: expressed in transfected cells; host or cells: Fischer rat thyroid (FRT) epithelial cells, stably transfected
Assay: Corrector assay, YFP fluorescence plate reader iodide influx in ΔF508-CFTR expressing FRT cells
Format: cell-based
Conditions: Table VIII; FRT cells, 18-24 h with compound at 37° C., forskolin 20 μM + genistein 50 μM, I− influx
recorded.metric: EC50 (µM)

# compound, result.units, EC50
data = [
    ("COc1ccc(S(=O)(=O)N2CCN(c3nc4ccc(C)cc4cc3C#N)CC2)cc1 [drawing 140]", "µM", 5),
    ("COc1ccc2nc(N3CCN(C(=O)c4ccccc4F)CC3)c(C#N)cc2c1", "µM", 4.2),
    ("COc1ccc(C(=O)NCCNc2nc3cc(C)cc(C)c3cc2C#N)cc1 [drawing 148]", "µM", 3),
]

I. Cc1cc(C)c2cc(C#N)c(NCCNC(=O)c3ccncc3)nc2c1 [drawing 151]
II. COc1ccc(C(=O)NCCNc2nc3c(C)cccc3cc2C#N)cc1OC [drawing 137]
Sorting ascending by EC50, which comes first: I or II ? // return label of chosen record
II
(II: 3.8 µM, I: 9.1 µM)

###

Molecular target: ΔF508-CFTR (Homo sapiens, UniProt P13569, DEL508-508)
Construct: expressed in transfected cells; host or cells: Fischer rat thyroid (FRT) epithelial cells, stably transfected
Test: Short-circuit current potentiator assay in ΔF508-CFTR expressing FRT cells after low-temperature rescue
Assay type: cell-based
Conditions: 27° C. for 24 h prior to measurement, in the presence of forskolin; read-out: Apparent EC50 for potentiator activity as measured by short-circuit current
recorded.metric: EC50

Look up EC50: COc1cccc(C(=O)NCCNc2nc3cc(C)cc(C)c3cc2C#N)c1
~10 µM

###

Target: ΔF508-CFTR (Homo sapiens, UniProt P13569, DEL508-508)
Construct: expressed in transfected cells; host or cells: Fischer rat thyroid (FRT) epithelial cells, stably transfected
Experiment: Potentiator assay, YFP fluorescence plate reader iodide influx in low-temperature rescued ΔF508-CFTR expressing FRT cells
Assay type: cell-based
Conditions: Table IX, additional experiments; 18-24 h at 27° C., forskolin 20 μM + test compound
recorded.metric: Potentiator Vmax (µM/s)

# molecule, Potentiator Vmax / µM/s
measured = [
    ("Cc1cc(C)c2cc(C#N)c(NCCCNC(=O)c3ccccn3)nc2c1 [drawing 179]", 233),
    ("COc1ccc(C(=O)NCCNc2nc3cc(C)cc(C)c3cc2C#N)cc1OC [drawing 185]", 216),
    ("COc1ccc(C(=O)NCCNc2nc3cc(C)cc(C)c3cc2C#N)cc1 [drawing 166]", 181),
]
